system: Plasmodium falciparum; experiment: Antimalarial activity against Plasmodium falciparum R1AC1B harboring DHODH C276F mutant measured after 72 hrs by SYBR Green dye based fluorescence assay; type: functional, organism-based

>  <Molecule>
Cc1cc(Nc2ccc(S(F)(F)(F)(F)F)cc2)n2nc(C(C)(F)F)nc2n1

>  <EC50 / nM>
170

$$$$

---

assay: Cmax in NOD-SCID IL2Rgamma null mouse blood infected with Plasmodium falciparum 3D70087/N9 at 50 mg/kg, po qd for 4 days starting from 3 days post infection and measured after 24 hrs post dose by LC-MS/MS analysis
Endpoint: Cmax (µM)

>  <Molecule>
Cc1c(Cc2ccc(C(F)(F)F)nc2)c[nH]c1C(=O)NC1CC1

>  <Endpoint>
Cmax

>  <Numeric Value>
7.81

$$$$

---

assay: in vivo; details: Swiss, mouse, po, 10 mg/kg

>  <Molecule>
Cc1cc(Nc2ccc(S(F)(F)(F)(F)F)cc2)n2nc(C(C)(F)F)nc2n1

>  <Tmax>
1 to 2 h

$$$$

---

assay: Cmax in Swiss mouse blood at 18.3 mg/kg, po via gavage measured up to 24 hrs by UPLC-MS analysis; type: ADME, organism-based; design: dose 18.3 mg/kg, route oral; details: in vivo

>  <Molecule>
Cc1c(Cc2ccc(C(F)(F)F)nc2)c[nH]c1C(=O)NC1CC1

>  <Units Text>
µM

>  <Cmax>
6.7

$$$$

---

assay: Clearance in Sprague-Dawley rat plasma at […], iv administered as infusion for 10 mins and measured up to 24 hrs by LC-MS analysis; format: ADME, organism-based; details: in vivo
Endpoint: clearance (mL/min/kg)

>  <Molecule>
Cc1c(Cc2ccc(C(F)(F)F)nc2)c[nH]c1C(=O)NC1CC1

>  <Numeric Value>
28.6

$$$$

---

test: Clearance in Sprague-Dawley rat plasma at […], iv by LC-MS analysis; type: ADME, organism-based; conditions: in vivo
Endpoint: clearance (mL/min/kg)

>  <Molecule>
Cc1cc(Nc2ccc(S(F)(F)(F)(F)F)cc2)n2nc(C(C)(F)F)nc2n1

>  <Endpoint>
clearance

>  <Units Text>
mL/min/kg

>  <Numeric Value>
6.5

$$$$

---

Known microsomal CLint of a selection of molecules
experiment: Intrinsic clearance in mouse liver microsomes assessed as per mg protein; format: ADME, Microsome; settings: microsomes

>  <Molecule>
Cc1c(Cc2ccc(C(F)(F)F)cc2)c[nH]c1C(=O)NC1CC1

>  <microsomal CLint / µL/min/mg>
173

$$$$
>  <Molecule>
CCOC(=O)c1[nH]c(C)c(Cc2ccc(OCC)cc2)c1C

>  <microsomal CLint / µL/min/mg>
470

$$$$
>  <Molecule>
Cc1[nH]c(C(=O)N2CCC2)c(C)c1Cc1ccc(C(F)(F)F)nc1

>  <microsomal CLint / µL/min/mg>
53

$$$$
>  <Molecule>
CCCNC(=O)c1[nH]c(C)c(Cc2ccc(C(F)(F)F)nc2)c1C

>  <microsomal CLint / µL/min/mg>
64

$$$$
>  <Molecule>
Cc1c(C(O)c2ccc(C(F)(F)F)nc2)c[nH]c1C(=O)NC1CC1 (racemic)

>  <microsomal CLint / µL/min/mg>
40

$$$$
>  <Molecule>
Cc1c(Cc2ccc(C(F)(F)F)cc2Cl)c[nH]c1C(=O)NC1CC1

>  <microsomal CLint / µL/min/mg>
264

$$$$
